Biological target: UniProt P05177
Sequence (P05177 whole entry): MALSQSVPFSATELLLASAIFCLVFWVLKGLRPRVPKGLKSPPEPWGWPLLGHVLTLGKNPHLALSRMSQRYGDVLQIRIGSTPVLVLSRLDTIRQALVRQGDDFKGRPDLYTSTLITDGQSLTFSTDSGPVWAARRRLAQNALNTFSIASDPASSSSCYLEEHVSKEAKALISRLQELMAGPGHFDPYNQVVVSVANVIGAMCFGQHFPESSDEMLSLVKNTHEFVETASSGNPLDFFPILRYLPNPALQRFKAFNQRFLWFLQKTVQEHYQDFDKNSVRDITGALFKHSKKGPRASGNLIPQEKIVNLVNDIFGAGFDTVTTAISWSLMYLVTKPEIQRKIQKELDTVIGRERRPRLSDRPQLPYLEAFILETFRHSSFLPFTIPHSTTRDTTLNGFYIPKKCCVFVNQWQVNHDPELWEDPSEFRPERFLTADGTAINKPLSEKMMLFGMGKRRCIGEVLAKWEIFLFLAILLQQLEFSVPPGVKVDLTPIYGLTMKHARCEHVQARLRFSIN
measurement-name: AC50

Solved entries (count: 5):
>  <compound>
CC[C@@](O)(C(=O)O)c1cc2n(c(=O)c1CO)Cc1cc3ccccc3nc1-2

>  <AC50>
3.16 µM (inconclusive)

$$$$
>  <compound>
CC1(C)C(=O)C(c2ccccc2)=C2CN3C(=O)N(CCc4ccccc4)C(=O)C3(Cc3ccc(F)cc3)C=C21 (stereo unspecified)

>  <AC50>
15.8 µM (inconclusive)

$$$$
>  <compound>
CCS(=O)(=O)c1ccc(C(=O)Nc2ccccc2)c(Cl)c1Cl

>  <AC50>
14.1 µM (inconclusive)

$$$$
>  <compound>
CCn1c(COc2ccccc2)nnc1SCC(=O)c1cccc([N+](=O)[O-])c1

>  <AC50>
28.2 µM (inconclusive)

$$$$
>  <compound>
N#CCCn1c(=O)c(-c2cccc(C#N)c2)nc2cnc(N3CCOCC3)nc21

>  <AC50>
15.8 µM (inconclusive)

$$$$

From here, focus on the item given below.
Query string: Find the measured AC50 of O=C(C[S+]([O-])c1cccc(C(F)(F)F)c1)Nc1ccccc1Cl (stereo unspecified) and report it.
Result string: 15.8 µM (inconclusive)

* * *

target: Paired box protein Pax-8 (Homo sapiens); assay: inhibitors of PAX8-driven TPO luciferase reporter, dose response, RMG-I cells, cherry-pick (AID 687027); assay type: functional, cell-based;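 note: luciferase reporter driven by Pax8 target thyroperoxidase promoter measured by SteadyGlo luminescence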
Sequence (Q06710 whole entry): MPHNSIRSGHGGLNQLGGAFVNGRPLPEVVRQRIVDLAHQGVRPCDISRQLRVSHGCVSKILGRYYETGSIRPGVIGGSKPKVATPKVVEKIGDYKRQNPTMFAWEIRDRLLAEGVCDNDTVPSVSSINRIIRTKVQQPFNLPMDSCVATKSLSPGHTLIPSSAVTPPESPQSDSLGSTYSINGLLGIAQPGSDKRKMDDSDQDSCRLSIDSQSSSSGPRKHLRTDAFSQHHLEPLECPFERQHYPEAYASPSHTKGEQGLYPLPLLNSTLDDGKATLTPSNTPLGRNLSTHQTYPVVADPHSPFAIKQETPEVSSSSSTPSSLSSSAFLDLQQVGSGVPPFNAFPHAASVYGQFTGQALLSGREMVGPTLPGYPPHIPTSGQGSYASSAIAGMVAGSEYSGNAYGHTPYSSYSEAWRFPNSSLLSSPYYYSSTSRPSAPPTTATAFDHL
Calls of active or inactive are those of the source.
measurement-name: AC50

>  <molecule>
CN(C[C@H]1N[C@@H](CO)[C@@H]1c1ccc(-c2cccnc2)cc1)C(=O)c1ccccc1

>  <measurement-name>
AC50

>  <result>
2.89 µM (active)

$$$$

Query string: Find the measured AC50 of COC(=O)C1=C(c2ccc(F)cc2OCc2ccccc2)C[C@@H]2CC[C@H]1N2C(=O)NC1Cc2ccccc2C1 and report it.
Result string: 9.27 µM (active)

Query string: Find the measured AC50 of COc1cc(CNc2ncnc3c2ncn3[C@H]2CN(Cc3ccc(-c4ccccc4)cc3)C[C@@H](CO)O2)cc(OC)c1OC and report it.
Result string: 7.36 µM (active)

Query string: Find the measured AC50 of C[C@@H]1CN([C@H](C)CO)C(=O)Cc2cc(NC(=O)Nc3ccc(F)cc3)ccc2O[C@H]1CN(C)C(=O)Nc1ccc(C(F)(F)F)cc1 and report it.
Result string: 11.4 µM (active)

Query string: Find the measured AC50 of O=C(Cc1ccccn1)N1CCCCN2[C@@H](CO)[C@@H](c3ccc(-c4ccc(F)cc4)cc3)[C@@H]2C1 and report it.
Result string: 22.6 µM (active)

Query string: Find the measured AC50 of COc1cc(/C=N\NC(=O)c2ccc(-c3ccccc3)cc2)cc(OC)c1OC(C)=O and report it.
Result string: 0.728 µM (active)

Query string: Find the measured AC50 of COCC(=O)N1CCCCN2[C@H](C1)[C@@H](c1ccc(-c3ccc(C)cc3)cc1)[C@@H]2CO and report it.
Result string: 58.9 µM (active)

Query string: Find the measured AC50 of NC(=O)[C@H]1CC2(CC(c3cccc(NC(=O)COc4ccc(Cl)cc4)c3)=NO2)CN1C(=O)C(c1ccccc1)c1ccccc1 (stereo not given in full) and report it.
Result string: 15.7 µM (active)

Query string: Find the measured AC50 of Cn1ncc2c(ON=C(N)c3ccc(C(F)(F)F)cc3)ncnc21 and report it.
Result string: 6.71 µM (active)

Query string: Find the measured AC50 of C[C@@H]1CN([C@@H](C)CO)C(=O)Cc2cc(NS(=O)(=O)c3ccc(F)cc3)ccc2O[C@H]1CN(C)Cc1ccc(Oc2ccccc2)cc1 and report it.
Result string: 5.32 µM (active)

* * *

target: Aminopeptidase N (Plasmodium falciparum FcB1/Columbia, UniProt O96935); test: P. falciparum M1AAP inhibitors, biochemical, fluorogenic H-Leu-NHMec substrate, 1536-well (AID 1445); parameters: species or system Plasmodium falciparum 3D7, 3D7
Sequence (O96935 whole entry): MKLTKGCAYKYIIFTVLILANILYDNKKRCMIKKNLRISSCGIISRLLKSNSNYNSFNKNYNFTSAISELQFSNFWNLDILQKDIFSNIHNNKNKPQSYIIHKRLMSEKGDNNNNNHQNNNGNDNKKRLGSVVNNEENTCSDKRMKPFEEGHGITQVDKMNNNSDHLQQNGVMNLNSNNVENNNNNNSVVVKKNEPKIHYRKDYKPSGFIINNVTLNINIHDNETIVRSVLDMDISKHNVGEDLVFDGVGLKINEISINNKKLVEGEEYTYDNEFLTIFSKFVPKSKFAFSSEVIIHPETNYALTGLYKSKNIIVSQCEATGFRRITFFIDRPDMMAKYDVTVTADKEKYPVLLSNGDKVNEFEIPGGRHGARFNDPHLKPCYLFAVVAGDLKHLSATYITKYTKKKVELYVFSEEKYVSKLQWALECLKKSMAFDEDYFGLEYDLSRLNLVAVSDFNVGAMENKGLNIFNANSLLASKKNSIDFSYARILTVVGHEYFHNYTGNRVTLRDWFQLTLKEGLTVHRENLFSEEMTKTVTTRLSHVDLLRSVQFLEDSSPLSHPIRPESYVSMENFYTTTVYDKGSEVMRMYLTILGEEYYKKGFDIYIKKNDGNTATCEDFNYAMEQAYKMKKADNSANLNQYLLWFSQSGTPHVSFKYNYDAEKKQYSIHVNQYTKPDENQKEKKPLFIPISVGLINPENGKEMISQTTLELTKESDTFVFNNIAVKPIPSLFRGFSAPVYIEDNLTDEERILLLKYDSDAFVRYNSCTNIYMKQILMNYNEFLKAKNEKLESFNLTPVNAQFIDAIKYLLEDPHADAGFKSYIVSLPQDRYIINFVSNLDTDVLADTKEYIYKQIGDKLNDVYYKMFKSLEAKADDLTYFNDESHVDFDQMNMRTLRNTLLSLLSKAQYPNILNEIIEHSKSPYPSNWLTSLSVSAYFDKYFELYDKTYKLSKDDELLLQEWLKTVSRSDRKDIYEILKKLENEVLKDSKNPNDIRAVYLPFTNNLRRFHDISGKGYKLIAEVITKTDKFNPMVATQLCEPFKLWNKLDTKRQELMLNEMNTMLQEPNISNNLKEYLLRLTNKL
Activity calls are given as the source filed them.
measurement-name: IC50

>  <compound>
COC(=O)c1ccc(COc2ccccc2/C=N/Nc2cccc(C(=O)O)c2)cc1

>  <tested-target>
Aminopeptidase N (Plasmodium falciparum FcB1/Columbia, UniProt O96935)

>  <IC50>
47 µM (active)

$$$$
>  <compound>
O=C(Nn1c(Cc2cccs2)nc2ccccc2c1=O)c1cccs1

>  <tested-target>
Aminopeptidase N (Plasmodium falciparum FcB1/Columbia, UniProt O96935)

>  <IC50>
11.9 µM (active)

$$$$
>  <compound>
O=C(CN1CCC(NC(=O)c2cccc(F)c2)CC1)NCc1cccs1

>  <tested-target>
Aminopeptidase N (Plasmodium falciparum FcB1/Columbia, UniProt O96935)

>  <IC50>
22.6 µM (active)

$$$$

Query string: Report its IC50 with Aminopeptidase N (Plasmodium falciparum FcB1/Columbia, UniProt O96935) as the test system: C/C(NNC(=O)c1ccccc1O)=C1/C(=O)NC(=O)N(Cc2ccccc2)C1=O
Result string: 19.2 µM (active)

* * *

Target: Heat shock factor protein 1 (Mus musculus, UniProt P38532)
Sequence (P38532 whole entry): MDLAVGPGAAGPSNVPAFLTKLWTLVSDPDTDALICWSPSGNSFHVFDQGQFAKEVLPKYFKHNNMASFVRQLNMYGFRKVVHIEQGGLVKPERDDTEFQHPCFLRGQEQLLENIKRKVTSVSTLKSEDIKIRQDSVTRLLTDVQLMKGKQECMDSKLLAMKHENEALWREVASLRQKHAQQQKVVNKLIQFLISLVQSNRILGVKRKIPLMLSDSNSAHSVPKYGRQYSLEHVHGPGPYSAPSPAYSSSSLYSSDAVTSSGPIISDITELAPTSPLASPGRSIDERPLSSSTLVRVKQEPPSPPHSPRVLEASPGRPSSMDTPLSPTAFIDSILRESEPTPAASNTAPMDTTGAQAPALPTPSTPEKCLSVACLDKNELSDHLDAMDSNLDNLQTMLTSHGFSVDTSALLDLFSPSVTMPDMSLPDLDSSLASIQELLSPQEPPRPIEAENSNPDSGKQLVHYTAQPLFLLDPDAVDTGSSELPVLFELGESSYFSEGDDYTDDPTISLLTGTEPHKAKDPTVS
Assay: inhibition of MG132-induced HSE-luciferase signal, confirmation, cell-based, NIH3T3, luminescence, dose retest (AID 2382);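 note: NIH3T3 fibroblasts with HSF1-driven luciferase reporter stressed by proteasome inhibitor MG132; luminescence from HSF1-driven luciferase expression after 8 hours of MG132 stress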
Format: functional
Activity calls are given as the source filed them.
measurement-name: EC50

Solved entries (count: 6):
>  <compound>
CC(C)N1CCC(N2CCN(C3CCCC3)CC2CCO)CC1 (stereo unspecified)

>  <tested-target>
Heat shock factor protein 1 (Mus musculus, UniProt P38532)

>  <result>
> 195 µM (not active)

$$$$
>  <compound>
O=C(NCc1ccccc1)[C@]1(C(F)(F)F)C[C@H](CCc2ccccc2)CCCO1

>  <tested-target>
Heat shock factor protein 1 (Mus musculus, UniProt P38532)

>  <result>
> 195 µM (not active)

$$$$
>  <compound>
CCN(CC)S(=O)(=O)c1cccc(-c2nnc(SCC(N)=O)n2CCc2ccccc2)c1

>  <tested-target>
Heat shock factor protein 1 (Mus musculus, UniProt P38532)

>  <result>
> 195 µM (not active)

$$$$
>  <compound>
Nc1ncnc2c1ccn2[C@@H]1O[C@H](CO)[C@@H](O)[C@H]1O [TUBERCIDIN]

>  <tested-target>
Heat shock factor protein 1 (Mus musculus, UniProt P38532)

>  <result>
3.06 µM (active)

$$$$
>  <compound>
COc1cccc2c(C)c(C(=O)O)[nH]c12

>  <tested-target>
Heat shock factor protein 1 (Mus musculus, UniProt P38532)

>  <result>
5.27 µM (active)

$$$$
>  <compound>
CCCS(=O)(=O)c1cnc(C2COc3ccccc3O2)nc1N (stereo unspecified)

>  <tested-target>
Heat shock factor protein 1 (Mus musculus, UniProt P38532)

>  <result>
< 0.16 µM (active)

$$$$

From here, focus on the item given below.
Query string: Find the measured EC50 of O=C(O)c1ccn(Cn2cnc3ccccc32)n1 and report it.
Result string: > 195 µM (not active)
